System: differentiating ReNcell VM NPCs
Assay: cells
Conditions: human, 72 h
Experimental: On-chip cultures of undifferentiated and 10-day differentiated NPCs were stamped with WellChips filled with compound-containing solutions and incubated for 72 hr prior to viability assessment. Vehicle-control normalized viabilities were plotted against compound concentration to generate dose-response plots (Figures 5A and S4). […] Cell viability was determined in 3D on-chip cultures using a mammalian cell viability assay (LIVE/DEAD, Invitrogen). […]
readout_kind: Normalized viability at Cmax, Differentiating, Mean ± SEM
Give bare numbers.

// worked examples, Normalized viability at Cmax, Differentiating, Mean ± SEM included
- molecule_smiles: "CCCC(CCC)C(=O)O"
  target: "differentiating ReNcell VM NPCs"
  numeric_readout: 1.09
- molecule_smiles: "CC1=C(/C=C/C(C)=C/C=C/C(C)=C/C(=O)O)C(C)(C)CCC1"
  target: "differentiating ReNcell VM NPCs"
  numeric_readout: 0.50
- molecule_smiles: "C[C@@H]1C[C@H]2[C@@H]3CCC4=CC(=O)C=C[C@]4(C)[C@@]3(F)[C@@H](O)C[C@]2(C)[C@@]1(O)C(=O)CO"
  target: "differentiating ReNcell VM NPCs"
  numeric_readout: 1.08
- molecule_smiles: "CC(=O)Nc1ccc(O)cc1"
  target: "differentiating ReNcell VM NPCs"
  numeric_readout: -0.1
- molecule_smiles: "O=c1[nH]cc(F)c(=O)[nH]1"
  target: "differentiating ReNcell VM NPCs"
  numeric_readout: 0.81

Here are 2 compounds. What values of Normalized viability at Cmax, Differentiating, Mean ± SEM were reported for them?
1. COc1cccc2c1C(=O)c1c(O)c3c(c(O)c1C2=O)C[C@@](O)(C(=O)CO)C[C@@H]3O[C@H]1C[C@H](N)[C@H](O)[C@H](C)O1
2. Fc1ccc([C@@H]2CCNC[C@H]2COc2ccc3c(c2)OCO3)cc1

1. 0.11
2. 0.30

* * *

system: undifferentiated ReNcell VM NPCs; experiment: On-chip proliferation assay (EdU incorporation), undifferentiated NPCs; type: cell-based, human; details: Homo sapiens, ReNcell VM; undifferentiated, 72 hr exposure, EdU for the final 24 hr, sigmoidal fit; read-out: Proliferation Effects Undifferentiating log(IC50 ± SEM) (converted)
Would you mind telling me the reported log10 of IC50 of each entry?
Please be aware that the numbers have been log10-transformed from IC50 in µM.

Example cases with answers are listed next.
- molecule_smiles: "C[n+]1ccc(-c2cc[n+](C)cc2)cc1"
  log10 of IC50: 1.77
- molecule_smiles: "O=c1[nH]cc(F)c(=O)[nH]1"
  log10 of IC50: 0.14
- molecule_smiles: "CC(=O)Nc1ccc(O)cc1"
  log10 of IC50: 3.02
- molecule_smiles: "O=C(O)C[C@H](O)C[C@H](O)/C=C/c1c(C2CC2)nc2ccccc2c1-c1ccc(F)cc1"
  log10 of IC50: 0.29

# input for lookup
According to the records, this molecule CC1=C(/C=C/C(C)=C/C=C/C(C)=C/C(=O)O)C(C)(C)CCC1 displays log10 of IC50 of 1.17

Cited source for all entries: paper PMC5106528
